src = ChEMBL document CHEMBL4828718

Test system: Pichia kudriavzevii
Test Details: Antifungal activity against Candida krusei ATCC 6258 assessed as fungal growth inhibition incubated for 18 to 24 hrs by alamar blue assay
Type: functional
Condition Summary: Pichia kudriavzevii, ATCC 6258, time 18-24 hrs; read-out: MIC
The following molecules are shown together with reported MIC values.
Attribute Measured: MIC

>>> value("CCCCCCCCCCCCCCC1(O)C(C)=C(C)C2=[N+](Cc3ccccc3)CCCN21 (centres undefined)")
"2.2 µM"
>>> value("C#CC[N+]1=C2C(C)=C(C)C(O)(CCCCCCCCCCCCCC)N2CCC1 (centres undefined)")
"2.1 µM"
>>> value("CCCCCCCCCCCCCCC1(O)C(C)=C(C)C2=[N+](CC(=O)NCCCN)CCCN21 (centres undefined)")
"7.5 µM"
>>> value("CCCCCCCCCCCCCCC1(O)C(C)=C(C)C2=[N+](Cc3cccc(OC)c3)CCCN21 (centres undefined)")
"2.1 µM"
>>> value("CCCCCCCCCCCCCCC1(O)c2ccccc2C2=[N+](C)CCCN21 (centres undefined)")
"13 µM"
>>> value("CCCCCCCCCCCCCCC1(O)C(C)=C(C)C2=[N+](CC(=O)c3cccc(Cl)c3)CCCN21 (centres undefined)")
"6.2 µM"
>>> value("CCCCCCCCCCCCCCC1(O)C(C)=C(C)C2=[N+](Cc3ccc(Br)cc3)CCCN21 (centres undefined)")
"2 µM"
>>> value("CCCCCCCCCCCCCCc1c(C)c(C)cn1CCCN")
"12 µM"
>>> value("C[C@@H]1[C@H](O)[C@@H](C)/C=C/C=C/C=C/C=C/C=C/C=C/C=C/[C@H](O[C@@H]2O[C@H](C)[C@@H](O)[C@H](N)[C@@H]2O)C[C@@H]2O[C@](O)(C[C@@H](O)C[C@@H](O)[C@H](O)CC[C@@H](O)C[C@@H](O)CC(=O)O[C@H]1C)C[C@H](O)[C@H]2C(=O)O [AMPHOTERICIN B]")
"1.3 µM"
